Provenance of the data: paper PMC12001967

- experimental system: T1, ProQ (Escherichia coli, UniProt P45577 1-232)
- T1 sequence: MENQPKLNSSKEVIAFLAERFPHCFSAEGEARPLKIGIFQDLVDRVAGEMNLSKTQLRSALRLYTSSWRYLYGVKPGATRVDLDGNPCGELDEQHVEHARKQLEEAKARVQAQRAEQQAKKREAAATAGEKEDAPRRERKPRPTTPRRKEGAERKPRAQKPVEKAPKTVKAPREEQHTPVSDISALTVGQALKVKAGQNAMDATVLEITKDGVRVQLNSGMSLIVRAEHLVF
- assay comment: EMSA; 25 mM Tris-HCl pH 7.5, 150 mM NaCl, 5% glycerol, 1 mM MgCl2, 1 nM 32P-RNA, 30 min at room temperature; native 6% PAGE in 0.5x TBE at 4 C
- study conditions: protein: recombinant; tags: pET-15b construct; label: 32P; terminator hairpin; A-G then C-A mismatch below; GAU4 tail
endpoint label: Kd (nM)

> print(dat)
                                     binder  numeric.result
1  FinP (structured_RNA) RNA: GGAUACAUAGGAACCUCCUCACAAAGGAUUCUAUGGACAGUCGAUGCAGGGAGUUCACGUCUCCCUGCAUCGGCGAUUUU              79
